Field: Ki. Provide a value for each of the compounds that follow.

Request: Checklist item: Ki tested on FXIIa (Homo sapiens), entry COc1ccc(C[C@@H]2C[C@@H](C(=O)NCc3ccc4c(c3)nnn4C)N(C(=O)[C@H](N)CCC(=O)N3CCCC3)C2)cc1 , value?
Response: < 200 nM

Request: Checklist item: Ki tested on FXIIa (Homo sapiens), entry CN(C)[C@H](CCC(=O)N1CCCC1)C(=O)N1C[C@H](Cc2cccnc2)C[C@H]1C(=O)NCc1ccc2c(c1)nnn2C , value?
Response: 200 to 2000 nM

Request: Checklist item: Ki tested on FXIIa (Homo sapiens), entry Cn1nnc2cc(CNC(=O)[C@@H]3C[C@@H](Cc4ccncc4)CN3C(=O)[C@H](N)CCC(=O)N3CCCC3)ccc21 , value?
Response: 200 to 2000 nM

Request: Checklist item: Ki tested on FXIIa (Homo sapiens), entry COc1ccc(C[C@@H]2C[C@@H](C(=O)NCc3ccc4c(c3)nnn4C)N(C(=O)[C@H](N)CC(O)c3ccccc3)C2)cc1 (stereo partly shown) , value?
Response: 200 to 2000 nM

Request: Checklist item: Ki tested on FXIIa (Homo sapiens), entry Cn1nnc2cc(CNC(=O)[C@@H]3C[C@@H](NC(=O)c4ccccc4)CN3C(=O)[C@H](N)CCc3ccccc3)ccc21 , value?
Response: > 2000 nM

Request: Checklist item: Ki tested on FXIIa (Homo sapiens), entry COc1ccc(C[C@@H]2C[C@@H](C(=O)NCc3cc4cnccc4[nH]3)N(C(=O)[C@H]3C[C@@H](c4cnn(C)c4)CN3)C2)cc1 , value?
Response: < 200 nM

Request: Checklist item: Ki tested on FXIIa (Homo sapiens), entry Cn1nnc2cc(CNC(=O)[C@@H]3C[C@@H](Cc4ccc(F)c(F)c4)CN3C(=O)C3C[C@@H](c4ccccc4)CN3)ccc21 (stereo partly shown) , value?
Response: > 2000 nM

Request: Checklist item: Ki tested on FXIIa (Homo sapiens), entry COc1ccc(C[C@@H]2C[C@@H](C(=O)NCc3ccc4c(c3)nnn4C)N(C(=O)[C@H]3CC(c4cnccn4)CN3)C2)cc1 (stereo partly shown) , value?
Response: 200 to 2000 nM

Request: Checklist item: Ki tested on FXIIa (Homo sapiens), entry Cn1nnc2cc(CNC(=O)[C@@H]3C[C@@H](Cc4cccc(Br)c4)CN3C(=O)[C@H]3C[C@@H](c4ccccc4)CN3)ccc21 , value?
Response: 200 to 2000 nM

Request: Checklist item: Ki tested on FXIIa (Homo sapiens), entry COc1ccc(C[C@@H]2C[C@@H](C(=O)NCc3ccc4c(c3)nnn4C)N(C(=O)[C@H]3C[C@@H](C(=O)N4CCCC4)CCN3)C2)cc1 , value?
Response: < 200 nM

Request: Checklist item: Ki tested on FXIIa (Homo sapiens), entry COc1ccc(C[C@@H]2C[C@@H](C(=O)NCc3ccc4c(c3)nnn4C)N(C(=O)[C@H](N)CCC(=O)N3CCCC3C(F)(F)F)C2)cc1 (stereo partly shown) , value?
Response: < 200 nM

Request: Checklist item: Ki tested on FXIIa (Homo sapiens), entry COc1ccc(C[C@@H]2C[C@@H](C(=O)NCc3ccc4c(c3)nnn4C)N(C(=O)[C@H](N)CCc3ccccn3)C2)cc1 , value?
Response: < 200 nM

Request: Checklist item: Ki tested on FXIIa (Homo sapiens), entry Cn1ncc2cc(CNC(=O)[C@@H]3C[C@@H](Cc4ccncc4)CN3C(=O)[C@H](N)CCC(=O)N3CCCC3)ccc21 , value?
Response: < 200 nM

Request: Checklist item: Ki tested on FXIIa (Homo sapiens), entry Cn1nnc2cc(CNC(=O)[C@@H]3C[C@@H](c4ccccc4)CN3C(=O)[C@H](N)CCc3ccccc3)ccc21 , value?
Response: > 2000 nM

Request: Checklist item: Ki tested on FXIIa (Homo sapiens), entry COc1ccc(C[C@@H]2C[C@@H](C(=O)NCc3ccc4c(c3)nnn4C)N(C(=O)[C@H]3CC(c4ccccc4F)CN3)C2)cc1 (stereo partly shown) , value?
Response: 200 to 2000 nM

Request: Checklist item: Ki tested on FXIIa (Homo sapiens), entry COc1cc(CNC(=O)[C@@H]2C[C@H](C)CN2C(=O)[C@H](N)CCc2ccccc2)ccc1CN , value?
Response: 200 to 2000 nM

Request: Checklist item: Ki tested on FXIIa (Homo sapiens), entry COc1ccc(C[C@@H]2C[C@@H](C(=O)NCc3cc4cnccc4[nH]3)N(C(=O)[C@H]3C[C@@H](C(=O)N4CCCC4(C)C)CCN3)C2)cc1 , value?
Response: < 200 nM

Request: Checklist item: Ki tested on FXIIa (Homo sapiens), entry COC(=O)N[C@H]1C[C@@H](C(=O)NCc2ccc3c(c2)nnn3C)N(C(=O)[C@H](N)CCc2ccccc2)C1 , value?
Response: > 2000 nM

Request: Checklist item: Ki tested on FXIIa (Homo sapiens), entry Cn1nnc2cc(CNC(=O)[C@@H]3C[C@H](c4ccc(F)cc4)CN3C(=O)[C@H](N)CCc3ccccc3)ccc21 , value?
Response: > 2000 nM

Request: Checklist item: Ki tested on FXIIa (Homo sapiens), entry Cn1nnc2cc(CNC(=O)[C@@H]3CC(Cc4cccc(C#N)c4)CN3C(=O)[C@H](N)CCC(=O)N3CCCC3)ccc21 (stereo partly shown) , value?
Response: 200 to 2000 nM

Request: Checklist item: Ki tested on FXIIa (Homo sapiens), entry Cn1nnc2cc(CNC(=O)[C@@H]3C[C@H](Nc4cnccn4)CN3C(=O)[C@H](N)CCC(=O)N3CCCC3)ccc21 , value?
Response: > 2000 nM

Request: Checklist item: Ki tested on FXIIa (Homo sapiens), entry COc1ccc(C[C@@H]2C[C@@H](C(=O)NCc3ccc4c(c3)nnn4C)N(C(=O)[C@H]3CC(c4cccnc4C(F)(F)F)CN3)C2)cc1 (stereo partly shown) , value?
Response: 200 to 2000 nM

Request: Checklist item: Ki tested on FXIIa (Homo sapiens), entry NCc1ccc(CNC(=O)C2CCCN2C(=O)[C@H](N)CCc2cccc(CO)c2)cc1 (stereo partly shown) , value?
Response: > 2000 nM

Request: Checklist item: Ki tested on FXIIa (Homo sapiens), entry Cn1nnc2cc(CNC(=O)[C@@H]3C[C@H](NCc4ccc(Cl)cc4)CN3C(=O)[C@H](N)CCc3ccccc3)ccc21 , value?
Response: > 2000 nM

Request: Checklist item: Ki tested on FXIIa (Homo sapiens), entry Cn1nnc2cc(CNC(=O)[C@@H]3C[C@@H](Cc4ccccc4C#N)CN3C(=O)[C@H]3C[C@@H](c4ccccc4)CN3)ccc21 , value?
Response: > 2000 nM

###

Biological target: UniProt:P00742
Test: Determination of selectivity: FXa inhibition, chromogenic substrate S2765 assay
Format: biochemical
Conditions: fold selectivity for FXIIa over FXa
Reported Property: FXa (human)/FXIIa alpha (human)

Take a look at these entries with their results.
| Compound | Tested System | Reported Property | Experimental Result |
| --- | --- | --- | --- |
| COc1ccc(C[C@@H]2C[C@@H](C(=O)NCc3ccc4c(c3)nnn4C)N(C(=O)C3NCCc4cc(O)ccc43)C2)cc1 (stereo partly drawn) [Example M05429] | UniProt:P00742 | FXa (human)/FXIIa alpha (human) | ∘∘ |
| N[C@H](CCC(=O)N1CCCC1)C(=O)N1C[C@H](Cc2ccc(C(F)(F)F)cc2)C[C@H]1C(=O)NCc1cc2cnccc2[nH]1 [Example M00969] | UniProt:P00742 | FXa (human)/FXIIa alpha (human) | ∘∘∘ |
| COc1ccc(C[C@@H]2C[C@@H](C(=O)NCc3ccc4c(c3)nnn4C)N(C(=O)[C@H]3CC(c4ccccc4F)CN3)C2)cc1 (stereo partly drawn) [Example M05377] | UniProt:P00742 | FXa (human)/FXIIa alpha (human) | ∘∘∘ |
| COc1ccc(C[C@@H]2C[C@@H](C(=O)NCc3ccc4c(c3)nnn4C)N(C(=O)[C@H](N)CCc3ccccn3)C2)cc1 [Example M05453] | UniProt:P00742 | FXa (human)/FXIIa alpha (human) | ∘∘∘ |

Request: Which measured FXa (human)/FXIIa alpha (human) value corresponds to Cn1nnc2cc(CNC(=O)[C@@H]3C[C@H](NCc4cccc(C(F)(F)F)c4)CN3C(=O)[C@H](N)CCc3ccccc3)ccc21 [Example M05159] ?
Response: ∘∘

Request: Which measured FXa (human)/FXIIa alpha (human) value corresponds to Cn1nnc2cc(CNC(=O)[C@@H]3C[C@@H](Cc4cccc(Cl)c4)CN3C(=O)[C@H](N)CCC(=O)N3CCCC3)ccc21 [Example M05190] ?
Response: ∘∘∘

###

Target: FXa (Homo sapiens)
Sequence (P00742 235-488 limits assumed): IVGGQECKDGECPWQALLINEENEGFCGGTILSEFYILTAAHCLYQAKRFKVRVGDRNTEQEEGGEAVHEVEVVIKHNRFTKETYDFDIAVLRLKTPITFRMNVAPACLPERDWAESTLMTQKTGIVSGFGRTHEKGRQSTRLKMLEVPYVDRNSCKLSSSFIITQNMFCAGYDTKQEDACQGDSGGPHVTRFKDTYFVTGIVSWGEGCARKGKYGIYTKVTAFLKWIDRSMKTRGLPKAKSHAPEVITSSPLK
Sequence (P00742 41-179 partner limits assumed): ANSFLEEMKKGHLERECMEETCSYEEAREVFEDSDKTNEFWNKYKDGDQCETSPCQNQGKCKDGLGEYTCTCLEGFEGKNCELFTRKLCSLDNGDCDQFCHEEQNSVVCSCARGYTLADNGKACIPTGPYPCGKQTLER
Test: Determination of selectivity: FXa inhibition, chromogenic substrate S2765 assay
Type: biochemical
Details: fold selectivity for FXIIa over FXa
Reported Property: FXa (human)/FXIIa alpha (human)

| Compound | FXa (human)/FXIIa alpha (human) |
| --- | --- |
| COc1ccc(C[C@@H]2C[C@@H](C(=O)NCc3ccc4c(c3)nnn4C)N(C(=O)[C@H](N)CCc3ccc(F)cc3)C2)cc1 | ∘∘ |
| Cn1nnc2cc(CNC(=O)[C@@H]3C[C@@H](Cc4ccc(OC(F)(F)F)cc4)CN3C(=O)[C@H]3C[C@@H](c4ccccc4)CN3)ccc21 | ∘∘ |
| Cn1nnc2cc(CNC(=O)[C@@H]3CC(Cc4ccc(C(F)(F)F)cc4)CN3C(=O)[C@H](N)CCC(=O)N3CCCC3)ccc21 (stereo partly drawn) | ∘∘∘ |
| Cn1ccnc1CC1C[C@@H](C(=O)NCc2ccc3c(c2)nnn3C)N(C(=O)[C@H](N)CCC(=O)N2CCCC2)C1 (stereo partly drawn) | ∘∘∘ |
| COc1ccc(C[C@@H]2C[C@@H](C(=O)NCc3ccc4c(c3)nnn4C)N(C(=O)[C@H](N)CCC(=O)N3C4CCC3C(=O)NC4)C2)cc1 (stereo partly drawn) | ∘∘∘ |

Attention now turns to another entry.
Request: Which measured FXa (human)/FXIIa alpha (human) value corresponds to COc1ccc(C[C@@H]2C[C@@H](C(=O)NCc3ccc4c(c3)nnn4C)N(C(=O)[C@H]3C[C@@H](Cc4ccccc4)CN3)C2)cc1 ?
Response: ∘∘∘
